Origin of the recorded values: PubChem BioAssay (NCI)

tested on: MDA-MB-231 breast; test: NCI tumour cell line growth inhibition, 48 h
Attribute: log10 of TGI
quantity: log10 of TGI (log10 of the value in µM)

>  <molecule>
Fc1ccc(Nc2ncc(-c3cc(F)c(Cl)cc3Cl)s2)cc1Cl

>  <result>
0.84

$$$$
>  <molecule>
COC(=O)[C@H](C)NC(=O)C1(CNC(=O)[C@H](C)NC(=O)OC(C)(C)C)Cc2ccccc2-c2ccccc2C1

>  <result>
1.55

$$$$
>  <molecule>
O=C(c1cc(Cl)cc(Cl)c1)N(Cc1cccnc1)C(=S)N(Cc1cccnc1)C(=O)c1cc(Cl)cc(Cl)c1

>  <result>
1.85

$$$$
>  <molecule>
O=C1Nc2ccc(O)cc2/C1=C\c1ccncc1

>  <result>
1.60

$$$$
>  <molecule>
CC(=O)N(C)c1cc(NCc2ccccc2)ccc1OCc1ccccc1

>  <result>
1.48

$$$$
>  <molecule>
CC(C)(C)[Si](C)(C)OC1[C@@H](O[Si](C)(C)C(C)(C)C)[C@@H](CNC(=O)NC(=O)NC(=O)CCl)O[C@H]1n1cnc2c(NC(=O)Nc3ccccc3)ncnc21 (some centres undefined)

>  <result>
0.58

$$$$
>  <molecule>
COC1=CC(c2ccc[nH]2)=N/C1=C\c1[nH]c(C)c(C(=O)Oc2ccccc2)c1C

>  <result>
-0.34

$$$$
>  <molecule>
CON=C1C[C@]2(C[C@@H]3C[C@@H](C/C=C(\C)C[C@@H](C)/C=C/C=C4\CO[C@@H]5[C@H](O)C(C)=C[C@@H](C(=O)O3)[C@]45O)O2)O[C@H](/C(C)=C/C(C)C)[C@H]1C

>  <result>
1.40

$$$$

====

Attribute: TGI
system: NCI-H23 lung; assay: NCI tumour cell line growth inhibition, 48 h

>  <molecule>
O=C(CN(Cc1ccccc1)Cc1ccccc1)N1CCc2c([nH]c3ccccc23)C1c1cccnc1 (stereo unspecified)

>  <TGI>
79.3 µM

$$$$
>  <molecule>
COc1ccc(C2=NN(C=O)C(c3ccc(OS(=O)(=O)c4ccc(C)cc4)c(OC)c3)C2)cc1 (stereo unspecified)

>  <TGI>
> 100 µM

$$$$
>  <molecule>
CCSc1nc(NC(C)c2ccccc2)c2cnn(CO)c2n1 (stereo unspecified)

>  <TGI>
> 100 µM

$$$$
>  <molecule>
CCOC(=O)Nc1ccc2nc(N3CCCCCC3)sc2c1

>  <TGI>
> 100 µM

$$$$
>  <molecule>
Cn1cnc([N+](=O)[O-])c1Sc1nc2ccccc2o1

>  <TGI>
17.1 µM

$$$$
>  <molecule>
Clc1ccc(-c2nc3c(-c4ccccc4)nc(-c4ccccc4)cn3c2-c2ccc(Cl)cc2)cc1

>  <TGI>
> 100 µM

$$$$
>  <molecule>
O=C(O)CCNc1ncc2c(n1)-c1ccccc1OC2

>  <TGI>
> 100 µM

$$$$
>  <molecule>
CC1NC(C(=O)O)Cc2cc(O)c(O)cc21 (stereo unspecified)

>  <TGI>
> 100 µM

$$$$
>  <molecule>
CC(C)(C)CNCCCNc1ccc(Cl)cc1

>  <TGI>
> 100 µM

$$$$
>  <molecule>
[N-]=[N+]=NCCCn1c2c(c3ccc([N+](=O)[O-])cc3c1=O)C(=O)c1cc(I)ccc1-2

>  <TGI>
55.7 µM

$$$$
>  <molecule>
O=C1Nc2ccc(O)cc2/C1=C\c1ccncc1

>  <TGI>
62.4 µM

$$$$

====

system: SW-620 colon; assay: NCI tumour cell line growth inhibition, 48 h
Attribute: GI50
quantity: GI50

>  <compound>
CCNC(=O)Oc1ccc(/C(=C(\C)c2ccc(Cl)cc2)c2ccc(OCCN(CC)CC)cc2)cc1

>  <measurement target>
SW-620 colon

>  <quantity>
GI50

>  <result>
2.02 µM

$$$$
>  <compound>
N.N.N.N.N.N#Cc1nn[n-]n1.[Cl-].[Co+3]

>  <measurement target>
SW-620 colon

>  <quantity>
GI50

>  <result>
> 100 µM

$$$$
>  <compound>
CCSc1nc(NC(C)c2ccccc2)c2cnn(CO)c2n1 (stereo not given)

>  <measurement target>
SW-620 colon

>  <quantity>
GI50

>  <result>
67.9 µM

$$$$
>  <compound>
Cc1ccc(/C=C(/C#N)n2nnc3ncccc32)cc1

>  <measurement target>
SW-620 colon

>  <quantity>
GI50

>  <result>
1.2 µM

$$$$
>  <compound>
CC(C)(C)[Si](C)(C)OC1[C@@H](O[Si](C)(C)C(C)(C)C)[C@@H](CNC(=O)NC(=O)NC(=O)CCl)O[C@H]1n1cnc2c(NC(=O)Nc3ccccc3)ncnc21 (stereo not given in full)

>  <measurement target>
SW-620 colon

>  <quantity>
GI50

>  <result>
3.52 µM

$$$$
>  <compound>
NC(=O)c1cc(I)ccc1NC(=O)/C=C/c1ccccc1Cl

>  <measurement target>
SW-620 colon

>  <quantity>
GI50

>  <result>
0.462 µM

$$$$
>  <compound>
O=C1Nc2ccc(O)cc2/C1=C\c1ccncc1

>  <measurement target>
SW-620 colon

>  <quantity>
GI50

>  <result>
25.5 µM

$$$$
>  <compound>
c1ccc(COCC[P+](c2ccccc2)(c2ccccc2)c2ccccc2)cc1

>  <measurement target>
SW-620 colon

>  <quantity>
GI50

>  <result>
1.83 µM

$$$$
>  <compound>
O=C(Nc1ccc(Oc2ccc(NC(=O)Nc3ccccc3Cl)cc2)cc1)Nc1ccccc1Cl

>  <measurement target>
SW-620 colon

>  <quantity>
GI50

>  <result>
10.6 µM

$$$$
>  <compound>
COc1ccc2nc3cc(Cl)ccc3c(NCCNCC(O)CO)c2c1 (stereo not given)

>  <measurement target>
SW-620 colon

>  <quantity>
GI50

>  <result>
0.61 µM

$$$$

====

tested on: MCF7 breast; assay: NCI tumour cell line growth inhibition, 48 h

>  <compound>
COc1ccc(NC(=S)C#N)cc1

>  <measurement target>
MCF7 breast

>  <TGI>
> 100 µM

$$$$
>  <compound>
CN1CCN(Cc2ccc(NC(=O)c3cncc(C#Cc4c(N)ncc5c(F)cccc45)c3)cc2C(F)(F)F)CC1

>  <measurement target>
MCF7 breast

>  <TGI>
1.31 µM

$$$$
>  <compound>
Cc1cncc(-c2nc(NCCc3c[nH]c4ccccc34)c3ncn(C(C)C)c3n2)c1

>  <measurement target>
MCF7 breast

>  <TGI>
15.6 µM

$$$$
>  <compound>
Cc1occc1C(=S)Nc1ccc(Cl)c(C(=O)OCC(C)C)c1

>  <measurement target>
MCF7 breast

>  <TGI>
33.3 µM

$$$$
>  <compound>
COC(C)(C)[C@@H]1CCCN1C1=C(C)C(=O)OC1

>  <measurement target>
MCF7 breast

>  <TGI>
> 100 µM

$$$$
>  <compound>
COc1ccc(/C(=C/c2ccc3ccccc3c2)c2nn[nH]n2)cc1OC

>  <measurement target>
MCF7 breast

>  <TGI>
> 100 µM

$$$$
>  <compound>
N#Cc1sc2c(c1OC(=O)c1ccc(Cl)cc1)c(=O)n(-c1ccccc1)c(=S)n2-c1ccccc1

>  <measurement target>
MCF7 breast

>  <TGI>
84.2 µM

$$$$
>  <compound>
COc1ccc(C(OC(=O)[C@H](O[Si](C)(C)C(C)(C)C)[C@@H](NC(=O)c2ccccc2)c2ccccc2)c2ccc(OC)cc2)cc1

>  <measurement target>
MCF7 breast

>  <TGI>
> 100 µM

$$$$
>  <compound>
O=C(c1cc(Cl)cc(Cl)c1)N(Cc1cccnc1)C(=S)N(Cc1cccnc1)C(=O)c1cc(Cl)cc(Cl)c1

>  <measurement target>
MCF7 breast

>  <TGI>
> 100 µM

$$$$
>  <compound>
O=c1sc(Nc2ccc3ccccc3c2Cl)nc2ccccc12

>  <measurement target>
MCF7 breast

>  <TGI>
> 100 µM

$$$$
>  <compound>
Cc1c2oc3c(C)cnc(C(=O)NC4C(=O)NC(C(C)C)C(=O)N5CCCC5C(=O)N(C)CC(=O)N(C)C(C(C)C)C(=O)OC4C)c3nc-2c(C(=O)NC2C(=O)NC(C(C)C)C(=O)N3CCCC3C(=O)N(C)CC(=O)N(C)C(C(C)C)C(=O)OC2C)c(N)c1=O (stereo not drawn)

>  <measurement target>
MCF7 breast

>  <TGI>
> 75 µM

$$$$
>  <compound>
CC(C)(C)C(O)CC(O)(C(F)(F)F)C(F)(F)F (stereo not drawn)

>  <measurement target>
MCF7 breast

>  <TGI>
> 100 µM

$$$$
>  <compound>
COc1ccc(C[n+]2cccc(O)c2)cc1

>  <measurement target>
MCF7 breast

>  <TGI>
> 100 µM

$$$$

====

system: DMS 114 small cell lung; test: NCI tumour cell line growth inhibition, 48 h
Attribute: TGI
quantity: TGI (µM)

>  <compound>
Cn1nc(-c2ccccc2)c2c(/C=C/c3ccc(Cl)cc3)onc2c1=O

>  <quantity>
TGI

>  <limit sign>
>

>  <result>
100

$$$$
>  <compound>
N#CC(C(=O)/C(=N/NC(=O)c1ccccc1O)C(C#N)c1ccc(Br)cc1)c1ccc(Br)cc1 (stereo not drawn)

>  <quantity>
TGI

>  <limit sign>
=

>  <result>
33

$$$$
>  <compound>
O=C1c2cccc([N+](=O)[O-])c2C(=O)c2nccnc21

>  <quantity>
TGI

>  <limit sign>
=

>  <result>
2.3

$$$$
>  <compound>
CCC[CH2][Sn]1([CH2]CCC)[O]C(=O)CN=C(C)c2ccccc2[O]1

>  <quantity>
TGI

>  <limit sign>
=

>  <result>
0.655

$$$$
>  <compound>
Cc1cc(N(CCC#N)CCC#N)ccc1/C=C1N=C(/C=C/c2ccccc2)N(c2ccc(S(N)(=O)=O)cc2)C\1=O

>  <quantity>
TGI

>  <limit sign>
>

>  <result>
100

$$$$
>  <compound>
COC(=O)C1CC(c2ccc(Cl)cc2)=NO1 (stereo not drawn)

>  <quantity>
TGI

>  <limit sign>
>

>  <result>
100

$$$$
>  <compound>
O=C(CCC(=O)Nc1ccc(Cl)cc1)CC(=O)c1ccc2ccccc2c1

>  <quantity>
TGI

>  <limit sign>
>

>  <result>
100

$$$$
>  <compound>
CCN(CC)CCCC(C)Nc1c2ccc(Cl)cc2nc2cc(Cl)ccc12 (stereo not drawn)

>  <quantity>
TGI

>  <limit sign>
=

>  <result>
16.6

$$$$
